Reference source: paper PMC12040169

protocol details: in vitro
settings: human, hela cells, % viability
observed property: viability at 28.5 h, 10 µM (%)
Answers are plain numbers, in %.

Here's what some known entries look like.
INSERT INTO assay_data (compound, observed_property, unit_of_measure, readout_number) VALUES
  ('COc1ccc(S(=O)(=O)N(C)CC(=O)NCc2cccnc2)cc1Cl [CBK268089]', 'viability at 28.5 h, 10 µM', '%', 108),
  ('CC(=O)NCCc1nc2cc(NC(=O)c3cccc([N+](=O)[O-])c3)ccc2n1C [CBK268478]', 'viability at 28.5 h, 10 µM', '%', 90.7),
  ('O=C(Cc1c[nH]c2ccccc12)N1CCCC1c1ccc(F)cc1 (stereo not shown) [CBK297927]', 'viability at 28.5 h, 10 µM', '%', 105);

Would you mind listing viability at 28.5 h, 10 µM for each of the following compounds?
1. COc1ccc(CC(=O)Nc2ccc(Nc3ccccc3)cc2)cc1 [CBK263884]
2. O=C(O)CCC(=O)N1CCC(Cn2cncn2)(C2CCCCC2)CC1 [CBK136809]

Completion:
1: 114; 2: 94.8

Would you mind listing viability at 28.5 h, 10 µM for each of the following compounds?
1. Cc1cc(C)c2c(OCC(=O)Nc3nc(C(N)=O)cs3)nn(C)c2n1 [CBK305530]
2. OCCCN1CCC(Oc2cncc(OCCN3CCOCC3)n2)C1 (stereo not shown) [CBK084494]

Completion:
1. 83.9
2. 95.9

Would you mind listing viability at 28.5 h, 10 µM for each of the following compounds?
1. C/C(=N\Nc1ccc(Cl)c(Cl)c1)c1cccnc1 [CBK015914C]
2. COc1cc(C#N)ccc1OCc1cc(C)on1 [CBK002581]
3. O=C(Cc1c[nH]c2ccccc12)N1CCc2ccccc21 [CBK200366]

Completion:
93.3
86.1
107

Would you mind listing viability at 28.5 h, 10 µM for each of the following compounds?
1. OCc1ccccc1-c1cncc(Nc2cccc(Cl)c2)n1 [CBK065400]
2. CC(NC(=O)C1(Cn2ccnc2)CC1)c1ccccc1-n1cccn1 (stereo not shown) [CBK307006]

Completion:
1: 102; 2: 94.3

Would you mind listing viability at 28.5 h, 10 µM for each of the following compounds?
1. O=C(Cc1c[nH]c2ccccc12)Nc1cnc(-c2cccc(OC(F)(F)F)c2)c(-c2cccnc2)n1 [CBK036863]
2. CN1CCN(C(=O)C2CCN(CCCc3ccccc3)CC2)CC1 [CBK264326G]
3. Cc1ccc(N(CC(=O)Nc2cccc3cccnc23)S(=O)(=O)c2ccc(C)cc2)cc1 [CBK262201]
4. Cn1ccnc1CN1C(=O)CO[C@H]2CN(c3ncccn3)C[C@H]21 [CBK289704]
5. CC(=O)NCC12CC3CC(C1)CC(C(=O)O)(C3)C2 [CBK286768]
6. CCN(CCCNC(=O)c1cc(-c2cccnc2)nc2ccccc12)c1cccc(C)c1 [CBK294465]
7. COc1ccccc1C1OC(=O)C[C@@H]1C(=O)Nc1cc(C(C)(C)C)on1 (stereo partly shown) [CBK021439]

Completion:
1. 108
2. 96
3. 104
4. 98.3
5. 93.8
6. 86.7
7. 110

---

protocol details: in vitro
settings: human, hela cells, % viability
observed property: viability at 28.5 h, 10 µM (%)
Give bare numbers, in %.

INSERT INTO measurements (compound, readout_number) VALUES
  ('N=C(N)SCCCCCSC(=N)N [CBK278314B]', 88.2),
  ('C=CCNC(=O)CCc1nc(-c2cccc(OC)c2)no1', 99.2),
  ('O=C(c1ccc([N+](=O)[O-])cc1)C12CN3CN(CN(C3)C1)C2', 87.1);

Would you mind listing viability at 28.5 h, 10 µM for each of the following compounds?
1. NCCCOc1cc(N2CCCC2)ncn1
2. COc1ccc(S(=O)(=O)N2Cc3ccccc3CC2C(=O)Nc2ccc(O)cc2)cc1OC (stereo not shown)
3. CCCCc1ccc(-c2ccc(-c3cc(C(=O)O)c4cc(C)ccc4n3)o2)cc1
4. Cn1nccc1CN(Cc1ccc(F)cc1)Cc1cccnc1
5. COCCNC(=O)c1cc(-c2ccccc2C)cnc1NS(C)(=O)=O

Completion:
[106, 90.9, 94, 101, 82.9]

Would you mind listing viability at 28.5 h, 10 µM for each of the following compounds?
1. Cc1nc(C)n(CC2CCCN(Cc3ccc(C#N)cc3)C2)n1 (stereo not shown)
2. CCc1cc(-c2[nH]nc(C)c2Oc2ccc(C(C)C)cc2)c(O)cc1O

Completion:
[83.1, 90.7]
